Listed here are compounds together with their documented selectivity ratio.
# TEST PROTOCOL: Selectivity index, ratio of IC50 for cytotoxicity against human BEAS-2B cells to IC50 for antiproliferative activity against human A549 cells
# Type: toxicity, cell-based
# CONDITION NOTES: read-out: Ratio IC50
Would you mind answering with just the numeric figure?

Solved entries (count: 3):
CCCCCCCCCCCC(=O)O[C@@]12C[C@@H](C)[C@]34C=C(C)[C@H](OC(=O)c5ccc([N+](=O)[O-])cc5)[C@@]3(O)[C@H](O)C(COC(=O)c3ccc([N+](=O)[O-])cc3)=C[C@H](C4=O)[C@@H]1C2(C)C 8.2
CCCCCCCCCCCC(=O)O[C@@]12C[C@@H](C)[C@]34C=C(C)[C@H](OC(=O)c5ccc(F)cc5)[C@@]3(O)[C@H](O)C(CO)=C[C@H](C4=O)[C@@H]1C2(C)C 19.8
CCCCCCCCCCCC(=O)O[C@@]12C[C@@H](C)[C@]34C=C(C)[C@H](O)[C@@]3(O)[C@H](O)C(CO)=C[C@H](C4=O)[C@@H]1C2(C)C 11.1

get_value(item= CCCCCCCCCCCC(=O)O[C@@]12C[C@@H](C)[C@]34C=C(C)[C@H](OC(=O)NCCC)[C@@]3(O)[C@H](O)C(CO)=C[C@H](C4=O)[C@@H]1C2(C)C , readout=selectivity ratio) returns 10.6
